Sourced from ChEMBL document CHEMBL1201862

# Test system: U-251
# Method Notes: NCI tumour cell line growth inhibition, 48 h
The source made the active and inactive calls. No stated cut-off is given here; in the data, active = GI50 up to about 1.1 µM and inactive = higher.
Hi! Could you answer with just one of these? label 1 for active, label 0 for inactive

[in] Given OCC(O)C(O)C(O)c1nnn[nH]1 (stereo unspecified) , state the outcome it received in this test.
[out] label 0

[in] Given COc1ccccc1NC(=O)O/N=C(/Cl)C(C)C , state the outcome it received in this test.
[out] label 0

====

# Tested on: Hs-578T
# Method Notes: NCI tumour cell line growth inhibition, 48 h
Calls of active or inactive are those of the source. Cut-off read from the data, not from the text of the source: active = GI50 up to about 1.1 µM and inactive = higher.
Item-by-item account of GI50

These recorded examples may help you get a feel for the data.
[[record]]
molecule = "CC1(C)CNC(=O)C2(/C=N/C(C)(C)CNC(=O)C3(/C=N/1)CCCO3)CCCO2 (stereo unspecified)"
result = "> 10 µM (inactive)"

[[record]]
molecule = "CN(CCC(=O)N1CC(CCl)c2ccc([N+](=O)[O-])cc21)CCC(=O)N1CC(CCl)c2ccc([N+](=O)[O-])cc21 (stereo unspecified)"
result = "2.85 µM (inactive)"

[[record]]
molecule = "CC1(C)CCCC2OC2CCC(C)(C)C1=O (stereo unspecified)"
result = "> 100 µM (inactive)"

[[record]]
molecule = "O=C(CNS(=O)(=O)Cc1ccccc1)NNc1ccccc1"
result = "> 100 µM (inactive)"


[in] What value of measured GI50 is listed for COc1ccc(/C=N/n2c(=O)[nH]c3ccccc3c2=O)cc1 ?
[out] 36.4 µM (inactive)

[in] What value of measured GI50 is listed for Nc1nc(Nc2ccccc2)sc1C(=O)c1cccs1 ?
[out] 15.8 µM (inactive)

====

# Test system: ACHN
# Method Notes: NCI tumour cell line growth inhibition, 48 h
Calls of active or inactive are those of the source. Cut-off read from the data, not from the text of the source: active = GI50 up to about 1.1 µM and inactive = higher.
Hi! Could you answer with just one of these? active, inactive

[[record]]
compound = "C[C@H]1NC(=O)C2CCCCN2C(=O)CN(C)C(=O)CNC(=O)C2CCCCN2C(=O)[C@@H](NC(=O)c2nc3ccccc3cc2O)[C@@H](C)NC(=O)C2CCCCN2C(=O)CN(C)C(=O)CNC(=O)[C@@H]2CCCCN2C(=O)C1NC(=O)c1nc2ccccc2cc1O (stereo not given in full)"
target_desc = "ACHN"
answer_label = "active"

[[record]]
compound = "COc1cc2c(cc1OC)-c1c(cc(OC)c(OC)c1OC)C2=O"
target_desc = "ACHN"
answer_label = "inactive"

[[record]]
compound = "CCC(=O)N1C(=O)OCC1C(C)C (stereo not given)"
target_desc = "ACHN"
answer_label = "inactive"

[[record]]
compound = "Clc1cc2nc[nH]c2cc1Cl"
target_desc = "ACHN"
answer_label = "inactive"


[in] Given NS(=O)(=O)c1ccc(NCc2nc3ccccc3[nH]2)cc1 , state the outcome it received in this test.
[out] inactive

====

Item-by-item account of GI50
# Test system: A549
# Method Notes: NCI tumour cell line growth inhibition, 48 h
Active and inactive are the calls of the source. Rule as the data show it: active = GI50 up to about 1.1 µM and inactive = higher.

[in] So what GI50 did CC(C)[Si](OCC1CC(C[C@H]2CC(C[C@H]3C[C@@H](CO[Si](C(C)C)(C(C)C)C(C)C)OC(C)(C)O3)OC(C)(C)O2)OC(C)(C)O1)(C(C)C)C(C)C (some centres undefined) get with A549?
[out] > 100 µM (inactive)

[in] So what GI50 did N#Cc1cc2c(n(C3OC(CO)C(O)C(O)C3O)c1=S)CCCCCC2 (centres undefined) get with A549?
[out] > 100 µM (inactive)

[in] So what GI50 did Cc1ccc(Cl)c(NC(=O)C(=O)C(C(=O)c2ccncc2)C2OC(=O)c3ccccc32)c1 (centres undefined) get with A549?
[out] > 100 µM (inactive)

[in] So what GI50 did CC(C)=CC(=O)O[C@@H]1CC(C)(C)CC2C3=CCC4[C@]56CC[C@](O)(OC5)C(C)(C)C6CC[C@@]4(C)C3(C)CC[C@]21C(=O)O (some centres undefined) get with A549?
[out] 33.7 µM (inactive)

[in] So what GI50 did OC1CCC(C2C3CCCCC3C3CCCCC3C2C2CCC(O)CC2)CC1 (centres undefined) get with A549?
[out] 4.18 µM (inactive)

[in] So what GI50 did COc1ccccc1/N=N/c1c(O)c(S(=O)(=O)O)cc2cc(S(=O)(=O)O)ccc12 get with A549?
[out] > 100 µM (inactive)

[in] So what GI50 did COc1cccc2c(Nc3ccc(S(=O)(=O)N=C(N)N)cc3)c3ccc([N+](=O)[O-])cc3nc12 get with A549?
[out] 20.2 µM (inactive)

[in] So what GI50 did N#CC1(C#N)[C@@H]2CCC=C(Sc3ccccc3)[C@@H]21 get with A549?
[out] 23.4 µM (inactive)

[in] So what GI50 did O=C1C2C(C(=O)N1OS(=O)(=O)c1ccccc1)N(Cc1ccccc1)C(=O)N2Cc1ccccc1 (centres undefined) get with A549?
[out] > 100 µM (inactive)

[in] So what GI50 did CCOP(=O)(OCC)/C(C#N)=C/c1cccn1Cc1ccccc1 get with A549?
[out] 34.8 µM (inactive)

[in] So what GI50 did CC(C)OC(=O)c1ccc(CCC2=CC(=O)C=CC2=O)cc1 get with A549?
[out] 25.4 µM (inactive)

[in] So what GI50 did CC1=C2C(=C[C@H]3[C@]4(C)CCCC(C)(C)[C@H]4CC[C@]34O[C@H]24)OC1=O get with A549?
[out] > 100 µM (inactive)

[in] So what GI50 did NC(=S)NNc1c([N+](=O)[O-])cnn(-c2ccccc2)c1=O get with A549?
[out] 23 µM (inactive)

[in] So what GI50 did COC(=O)c1sc2nc(Nc3ccccc3)/c(=N\c3ccccc3)sc2c1C get with A549?
[out] 65.8 µM (inactive)

[in] So what GI50 did CS/C(=N\c1nccs1)NC(=O)c1cccc(Cl)c1 get with A549?
[out] > 100 µM (inactive)

[in] So what GI50 did COC(=O)C(=O)C(C(=O)C(=O)Nc1ccc(C)cc1C)c1nc2ccc(Cl)cc2nc1O (centres undefined) get with A549?
[out] > 100 µM (inactive)

[in] So what GI50 did C[n+]1c2ccccc2c(CNc2ccc(S(=O)(=O)N=C(N)N)cc2)c2ccccc21 get with A549?
[out] 6.17 µM (inactive)

[in] So what GI50 did O=C(O)c1ccc(Nc2nc3cc(C(F)(F)F)ccc3nc2-c2ccccc2)cc1 get with A549?
[out] 16.3 µM (inactive)

[in] So what GI50 did CC1CCC2(C(=O)O)CCC3(C)C(=CCC4C5(C)CC(O)C(O)C(C)(CO)C5C(O)CC43C)C2C1C (centres undefined) get with A549?
[out] > 100 µM (inactive)

====

# Test system: SK-MEL-28
# Method Notes: NCI tumour cell line growth inhibition, 48 h
Active and inactive are the calls of the source. Cut-off read from the data, not from the text of the source: active = GI50 up to about 1.1 µM and inactive = higher.
Assay Readout: GI50

[[record]]
compound = "CN1[C@@H]2CCCC[C@H]2N(C)P1(=O)C(O)/C=C/c1ccccc1 (stereo not given in full)"
result = "> 100 µM (inactive)"


Then there is this compound:
[in] What value of measured GI50 is listed for NC(CCC(=O)NC(CSC(=O)N(O)c1ccc(Br)cc1)C(=O)NCC(=O)O)C(=O)O (stereo not given) ?
[out] > 50 µM (inactive)

====

# Tested on: MCF7
# Method Notes: NCI tumour cell line growth inhibition, 48 h
The source made the active and inactive calls. Rule as the data show it: active = GI50 up to about 1.1 µM and inactive = higher.
Item-by-item account of GI50

[[record]]
compound = "OC1(c2ccccc2)CSc2ncnn21 (stereo not given)"
assay_readout = "GI50"
result = "> 100 µM (inactive)"

[[record]]
compound = "COc1cccc(/C=N/NC(=O)CSCC(=O)N/N=C/c2cccc(OC)c2OC)c1OC"
assay_readout = "GI50"
result = "> 100 µM (inactive)"

[[record]]
compound = "NN/C(=N\\S(=O)(=O)c1cc(S(=O)(=O)c2ccccc2)cs1)Nc1ccc(Cl)cc1"
assay_readout = "GI50"
result = "32.4 µM (inactive)"


[in] What value of measured GI50 is listed for COc1ccc2c(c1)c(=O)c1c(NCCNCCO)ccc3c(=O)n(CCN(C)C)c(=O)n2c31 ?
[out] < 0.0276 µM (active)

[in] What value of measured GI50 is listed for C[C@H](CSC(=O)c1ccccc1)C(=O)N1c2ccccc2C[C@H]1C(=O)O ?
[out] 46 µM (inactive)

====

Reported GI50 for target or system HCT-15, by entry.
Answer format: numeric, µM implied, no suffix.

[[record]]
molecule = "N#CSCC1COc2ccccc2O1 (stereo not given)"
target_desc = "HCT-15"
assay_readout = "GI50"
quantitative_result = 9.89


[in] What value of measured GI50 is listed for COc1ccc(-c2nnc3c4ccccc4sn23)cc1 ?
[out] 6.28

[in] What value of measured GI50 is listed for Brc1ccc(C2CC(c3cccc4ccccc34)=Nc3ccccc3S2)cc1 (stereo not given) ?
[out] 35.3

[in] What value of measured GI50 is listed for CC(C)(C)c1ccc(Oc2ccc(C#N)c(C#N)c2)c(C(C)(C)C)c1 ?
[out] 14.4

[in] What value of measured GI50 is listed for Nc1nc(Nc2ccccc2)sc1C(=O)c1cccs1 ?
[out] 10.8

[in] What value of measured GI50 is listed for COc1cc([C@@H]2c3cc4c(cc3[C@@H](NC(=O)c3cccc(F)c3)C3COC(=O)[C@@H]32)OCO4)cc(OC)c1O (stereo not given in full) ?
[out] 1.45

[in] What value of measured GI50 is listed for CC(C)(C)[Si](C)(C)OCC1CCC(n2cnc3c(N)ncnc32)O1 (stereo not given) ?
[out] 72.1
